Study target: T1, human OX40 on cells (CHO-K1/hu OX40) (human, UniProt P43489 29-277)
T1 sequence (looked up): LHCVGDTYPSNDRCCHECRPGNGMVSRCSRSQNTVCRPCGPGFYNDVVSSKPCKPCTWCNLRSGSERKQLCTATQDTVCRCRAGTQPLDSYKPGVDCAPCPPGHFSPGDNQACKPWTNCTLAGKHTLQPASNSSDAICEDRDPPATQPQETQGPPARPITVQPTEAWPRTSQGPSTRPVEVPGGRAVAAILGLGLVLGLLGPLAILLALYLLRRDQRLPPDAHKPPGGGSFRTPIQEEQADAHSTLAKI
Assay method text: cell-based or functional assay
Measured metric: EC50, HEK293/OX40/NF-kb luciferase reporter (nM)
Unit nM implied. Number only.

PR002073 (antibody, human IgG1, V domains shown, no light chain; also called anti-OX40 HCAb antibody) VH: EVQLVESGGGLVQPGGSLRLSCAASGFTFSSYAMSWVRQAPGKGLEWVSAISGGSGSTFYADSVRGRFTISRDNSKNTLYLQMNSLRAEDTAVYYCADGVTGTDFDFWGQGTLVTVSS	6.39
PR002070 (antibody, human IgG1, V domains shown, no light chain; also called anti-OX40 HCAb antibody) VH: EVQLLESGGGLVQPGGSLRLSCIASGFSFSSYAMSWVRQAPGKGLEWVSAISGRGGSTFYADSVRGRFNISRDNSKNTLYLQMNSLRVEDTAVYYCANGMTGTTDVDYWGQGTLVTVSS	7.6
PR002076 (antibody, human IgG1, V domains shown, no light chain; also called anti-OX40 HCAb antibody) VH: EVQLLESGGGLVQPGGSLRLSCAASGFTFSSYAMSWVRQAPGKGLEWVSAISGSGGNTYYADSVRGRFTISRDNSKNTLYLQMNSLRAEDTAVYYCANGMTGTTDVDYWGQGTRVTVSS	67
PR002063 (antibody, human IgG1, V domains shown, no light chain; also called anti-OX40 HCAb antibody) VH: EVQLLESGGGLVQPGGSLRLSCAASGFTFSSYAMSWVRQAPGRGLEWVSAISGGGGSTFYADSVRGRFTISRDNSKNTLYLQMSSLRAEDTAVYYCANGMTGTTDVDYWGQGTRVTVSS	8.64
PR002069 (antibody, human IgG1, V domains shown, no light chain; also called anti-OX40 HCAb antibody) VH: EVQLLESGGGLVQPGGSLRLSCAASGFTFSSYAMSWVRQAPGKGREWVSAISGGGGNTFYADSVRGRFTISRDNSKNTLYLQMNSLRAEDTAVYYCANGVTGTTDVDYWGQGTLVTVSS	6.27
PR002072 (antibody, human IgG1, V domains shown, no light chain; also called anti-OX40 HCAb antibody) VH: EVQLLESGGGLVQPGGSLRLSCAASGFTFSSYAMSWVRQASGKGLEWISAISGSGGSTYYADSVRGRFTISRDNSKNTLYLQMNSLRADDTAVYYCANGMTGTTDVDFWGQGTPVTVSS	14.2

Shift focus to the following entry.
(Q) Looking for the measured EC50, HEK293/OX40/NF-kb luciferase reporter of PR002077 (antibody, human IgG1, V domains shown, no light chain; also called anti-OX40 HCAb antibody) VH: EVQLLESGGGLVQPGGSLRLSCAASGFTFSSYAMSWVRQAPGKGLEWVSAISGRGNITFYADSVRGRFTISRDNSKNTLYLQMNSLRAEDTAVYYCANGITGTTDVDYWGQGTLVTVSS , can you help?
(A) 3.51
